- Tested on: HeLa
- assayProcedure: Cytotoxicity against human HeLa cells assessed as reduction in inhibition of cell growth incubated for 48 hrs by MTT assay
- Assay type: functional, cell-based
Reported values of pIC50 for individual entries
Reminder that pIC50 means the negative base-10 logarithm of the concentration expressed in mol/L.

Look at this molecule and give its reported pIC50. `COc1cc([C@@H]2c3cc4c(cc3[C@@H](Nc3nc(CC(=O)N5CCOCC5)cs3)[C@H]3COC(=O)[C@H]23)OCO4)cc(OC)c1O`
4.83

Look at this molecule and give its reported pIC50. COc1cc([C@@H]2c3cc4c(cc3[C@@H](O[C@@H]3O[C@@H]5CO[C@@H](C)O[C@H]5[C@H](O)[C@H]3O)[C@H]3COC(=O)[C@H]23)OCO4)cc(OC)c1O [ETOPOSIDE]
4.95

Look at this molecule and give its reported pIC50. `CCOC(=O)Cc1csc(N[C@@H]2c3cc4c(cc3[C@@H](c3cc(OC)c(O)c(OC)c3)[C@H]3C(=O)OC[C@@H]32)OCO4)n1`
4.90

Look at this molecule and give its reported pIC50. `COc1cc([C@@H]2c3cc4c(cc3[C@@H](Nc3nc(CC(=O)NC5CCCC5)cs3)[C@H]3COC(=O)[C@H]23)OCO4)cc(OC)c1O`
4.85

Look at this molecule and give its reported pIC50. `COc1cc([C@@H]2c3cc4c(cc3[C@@H](Nc3nc(CC(=O)NC5CCCCC5)cs3)[C@H]3COC(=O)[C@H]23)OCO4)cc(OC)c1O`
4.97

Look at this molecule and give its reported pIC50. `COc1cc([C@@H]2c3cc4c(cc3[C@@H](Nc3nc(CC(=O)O)cs3)[C@H]3COC(=O)[C@H]23)OCO4)cc(OC)c1O`
5.06

Look at this molecule and give its reported pIC50. `CCOC(=O)c1csc(N[C@@H]2c3cc4c(cc3[C@@H](c3cc(OC)c(O)c(OC)c3)[C@H]3C(=O)OC[C@@H]32)OCO4)n1`
5.25

Look at this molecule and give its reported pIC50. `COc1cc([C@@H]2c3cc4c(cc3[C@@H](Nc3nc(CC(=O)N5CCN(C6CCCC6)CC5)cs3)[C@H]3COC(=O)[C@H]23)OCO4)cc(OC)c1O`
5.36

Look at this molecule and give its reported pIC50. `COc1cc([C@@H]2c3cc4c(cc3[C@@H](Nc3nc(CC(=O)NC5CC5)cs3)[C@H]3COC(=O)[C@H]23)OCO4)cc(OC)c1O`
4.76

Look at this molecule and give its reported pIC50. `COc1cc([C@@H]2c3cc4c(cc3[C@@H](Nc3nc(CC(=O)N5CCN(C)CC5)cs3)[C@H]3COC(=O)[C@H]23)OCO4)cc(OC)c1O`
4.78
